Biological target: D(2) dopamine receptor (Homo sapiens, UniProt P14416)
Sequence (P14416 whole entry): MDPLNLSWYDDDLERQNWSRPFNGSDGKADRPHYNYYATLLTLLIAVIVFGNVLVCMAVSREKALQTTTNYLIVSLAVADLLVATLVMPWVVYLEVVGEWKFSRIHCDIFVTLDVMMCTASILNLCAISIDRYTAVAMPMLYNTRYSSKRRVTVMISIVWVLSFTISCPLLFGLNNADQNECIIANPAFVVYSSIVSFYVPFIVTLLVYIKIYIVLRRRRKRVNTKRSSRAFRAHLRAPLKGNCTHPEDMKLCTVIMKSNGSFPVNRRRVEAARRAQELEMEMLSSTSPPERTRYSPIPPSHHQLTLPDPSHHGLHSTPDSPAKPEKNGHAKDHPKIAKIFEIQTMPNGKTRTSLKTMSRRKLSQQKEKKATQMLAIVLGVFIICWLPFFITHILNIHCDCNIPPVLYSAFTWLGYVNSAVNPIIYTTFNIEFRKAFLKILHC
Assay: Displacement of [3H]spiperone from human recombinant dopamine D2L receptor expressed in CHOFlpIn cells after 3 hrs by liquid scintillation counting
Format: cell-based
readout.kind: IC50 (nM)

Here is how some molecules turned out for IC50.
>>> value_reported("CN1CCc2cccc3c2[C@H]1Cc1ccc(OCCCNC(=O)CCCCCCCCCCCCCCCCC(=O)NCCCOc2ccc4c(c2O)-c2cccc5c2[C@@H](C4)N(C)CC5)c(O)c1-3")
2680
>>> value_reported("CN1CCc2cccc3c2[C@H]1Cc1ccc(OCCCNC(=O)CCCCCCCCCCCCCCCCCCC(=O)NCCCOc2ccc4c(c2O)-c2cccc5c2[C@@H](C4)N(C)CC5)c(O)c1-3")
1550
>>> value_reported("CN1CCc2cccc3c2[C@H]1Cc1ccc(OCCCNC(=O)CCCCCCC(=O)NCCCOc2ccc4c(c2O)-c2cccc5c2[C@@H](C4)N(C)CC5)c(O)c1-3")
3600

(1) CN1CCc2cccc3c2[C@H]1Cc1ccc(OCCCNC(=O)CCC(=O)NCCCOc2ccc4c(c2O)-c2cccc5c2[C@@H](C4)N(C)CC5)c(O)c1-3
(2) CN1CCc2cccc3c2[C@H]1Cc1ccc(OCCCNC(=O)CCCCCCCCCCC(=O)NCCCOc2ccc4c(c2O)-c2cccc5c2[C@@H](C4)N(C)CC5)c(O)c1-3
// query # return whichever of 1 and 2 has the smaller IC50 Bench note: the answer is the label of the chosen record.
// result 2

----------
Molecular target: UniProt:P14416
Experiment: Displacement of [3H]spiperone from human recombinant dopamine D2L receptor expressed in CHOFlpIn cells after 3 hrs by liquid scintillation counting
Format: cell-based
readout.kind: IC50 (µM)

>>> value_reported("CN1CCc2cccc3c2[C@H]1Cc1ccc(OCCCNC(=O)CCCCCNC(=O)OC(C)(C)C)c(O)c1-3")
6.54

(I) CN1CCc2cccc3c2[C@H]1Cc1ccc(OCCCNC(=O)CCCCCCCCC(=O)NCCCOc2ccc4c(c2O)-c2cccc5c2[C@@H](C4)N(C)CC5)c(O)c1-3
(II) CN1CCc2cccc3c2[C@H]1Cc1ccc(OCCCNC(=O)CCCCC(=O)NCCCOc2ccc4c(c2O)-c2cccc5c2[C@@H](C4)N(C)CC5)c(O)c1-3
// query Which entry shows the lesser value of IC50 here, I or II ? Lab log: write the label of the selected item as the result.
// result I

----------
Target: D(2) dopamine receptor (Homo sapiens)
Test: Agonist activity at human recombinant dopamine D2L receptor expressed in CHOFlpIn cells assessed as ERK1/2 phosphorylation by alphascreen assay
pEC50: −log10 of the molar value.
readout.kind: pEC50

>>> value_reported("CN1CCc2cccc3c2[C@H]1Cc1ccc(OCCCNC(=O)CCCCCCCCCCCCCCCCC(=O)NCCCOc2ccc4c(c2O)-c2cccc5c2[C@@H](C4)N(C)CC5)c(O)c1-3")
6.41
>>> value_reported("CN1CCc2cccc3c2[C@H]1Cc1ccc(OCCCN)c(O)c1-3")
8.00
>>> value_reported("CN1CCc2cccc3c2[C@H]1Cc1ccc(OCCCNC(=O)CCCCCCC(=O)NCCCOc2ccc4c(c2O)-c2cccc5c2[C@@H](C4)N(C)CC5)c(O)c1-3")
6.38

(I) CN1CCc2cccc3c2[C@H]1Cc1ccc(OCCCNC(=O)CCCCCCCCCCC(=O)NCCCOc2ccc4c(c2O)-c2cccc5c2[C@@H](C4)N(C)CC5)c(O)c1-3
(II) CN1CCc2cccc3c2[C@H]1Cc1ccc(OCCCNC(=O)CCC(=O)NCCCOc2ccc4c(c2O)-c2cccc5c2[C@@H](C4)N(C)CC5)c(O)c1-3
// query Hi! Which is lower in terms of pEC50, the first one I or the second one II ? In your reply, give the label of the chosen option.
// result II

----------
Molecular target: D(2) dopamine receptor (Homo sapiens)
Assay: Agonist activity at human recombinant dopamine D2L receptor expressed in CHOFlpIn cells assessed as ERK1/2 phosphorylation by alphascreen assay
Assay type: cell-based
readout.kind: EC50 (nM)

Check out these entries, answers already filled in.
>>> value_reported("CN1CCc2cccc3c2[C@H]1Cc1ccc(OCCCNC(=O)CCCCCNC(=O)OC(C)(C)C)c(O)c1-3")
266
>>> value_reported("CN1CCc2cccc3c2[C@H]1Cc1ccc(OCCCNC(=O)CCCCC(=O)NCCCOc2ccc4c(c2O)-c2cccc5c2[C@@H](C4)N(C)CC5)c(O)c1-3")
149
>>> value_reported("CN1CCc2cccc3c2[C@H]1Cc1ccc(OCCCNC(=O)CCCCCCCCCCCCCCCCCCC(=O)NCCCOc2ccc4c(c2O)-c2cccc5c2[C@@H](C4)N(C)CC5)c(O)c1-3")
248

(a) CN1CCc2cccc3c2[C@H]1Cc1ccc(OCCCNC(=O)CCCCCCCCC(=O)NCCCOc2ccc4c(c2O)-c2cccc5c2[C@@H](C4)N(C)CC5)c(O)c1-3
(b) CN1CCc2cccc3c2[C@H]1Cc1ccc(OCCCNC(=O)CCCCCCCCCCCCC(=O)NCCCOc2ccc4c(c2O)-c2cccc5c2[C@@H](C4)N(C)CC5)c(O)c1-3
(c) CC(=O)NCCCOc1ccc2c(c1O)-c1cccc3c1[C@@H](C2)N(C)CC3
// query Would you mind ranking these compounds by ascending EC50? Provide your answer as the labels ordered per the instruction.
// result a, c, b
(a: 79 nM, c: 132 nM, b: 224 nM)
